Catalogue of selectivity ratio values
Experiment: Selectivity index, ratio of TC50 for MDCK cells to IC50 for Influenza A virus (A/95-359) infected in MDCK cells
Type: toxicity, cell-based
Settings: dog, read-out: Selectivity Index
# respond with the number and nothing more

compound	reported
C[C@H](CC[C@H](O)C(C)(C)O)[C@H]1CC[C@@]2(C(=O)O)[C@@H]3CCC4=C(CC[C@@H](O)C4(C)C)C[C@H]3CC[C@]12C	4
NC(=O)c1ncn([C@@H]2O[C@H](CO)[C@@H](O)[C@H]2O)n1 [RIBAVIRIN]	895
CCOC(=O)C1=C[C@@H](OC(CC)CC)[C@H](NC(C)=O)[C@@H](N)C1 [OSELTAMIVIR]	741

Inquiry: Would you mind telling me what selectivity ratio value was observed for C[C@H](CC[C@H](O)C(C)(C)O)[C@H]1CC[C@@]2(C(=O)O)[C@@H]3CCC4=C(CC[C@@H](O[C@@H]5O[C@H](CO)[C@@H](O)[C@H](O)[C@H]5O)C4(C)C)C[C@H]3CC[C@]12C ?
Reply text: 3

Inquiry: Similarly, CC(=O)OC[C@H]1O[C@@H](O[C@@H]2CC[C@]3(C)C4=C(CC[C@H]3C2(C)C)[C@]2(C(=O)O)CC[C@H]([C@H](C)CC[C@H](O)C(C)(C)O)[C@@]2(C)CC4)[C@H](O)[C@@H](O)[C@@H]1O ?
Reply text: 1.7

Inquiry: // same read-out, input: CC(=O)OC[C@H]1O[C@@H](O[C@@H]2CC[C@]3(C)C4=C(CC[C@H]3C2(C)C)[C@]2(C(=O)O)CC[C@H]([C@H](C)CC[C@H](O[C@@H]3OC[C@H](O)[C@H](O)[C@H]3O)C(C)(C)O)[C@@]2(C)CC4)[C@H](O)[C@@H](O)[C@@H]1O
Reply text: 1.7

Inquiry: Entry C[C@H](CCC(=O)C(C)(C)O)[C@H]1CC[C@@]2(C(=O)O)[C@@H]3CCC4=C(CC[C@@H](O)C4(C)C)C[C@H]3CC[C@]12C please
Reply text: 3

Inquiry: C[C@H](CC[C@H](O)C(C)(C)O)[C@H]1CC[C@@]2(C(=O)O)C3=C(CC[C@]12C)[C@@]1(C)CC[C@@H](O)C(C)(C)[C@@H]1CC3 , same question.
Reply text: 4.3

====

Assay: Selectivity index, ratio of TC50 for African green monkey Vero cells to IC50 for Herpes simplex virus-1 F VR 733 infected in African green monkey Vero cells
Assay type: toxicity
Conditions: read-out: Selectivity Index
measuredProperty: selectivity ratio

Here is how some molecules turned out for selectivity ratio.
molecule	measuredProperty	reported
C[C@H](CC[C@H](O[C@@H]1O[C@H](CO)[C@@H](O)[C@H](O)[C@H]1O)C(C)(C)O)[C@H]1CC[C@@]2(C(=O)O)C3=C(CC[C@]12C)[C@@]1(C)CC[C@@H](O)C(C)(C)[C@@H]1CC3	selectivity ratio	2.5
Nc1nc2c(ncn2COCCO)c(=O)[nH]1 [ACYCLOVIR]	selectivity ratio	> 244
CC(=O)OC[C@H]1O[C@@H](O[C@@H]2CC[C@]3(C)C4=C(CC[C@H]3C2(C)C)[C@]2(C(=O)O)CC[C@H]([C@H](C)CC[C@H](O[C@@H]3OC[C@H](O)[C@H](O)[C@H]3O)C(C)(C)O)[C@@]2(C)CC4)[C@H](O)[C@@H](O)[C@@H]1O	selectivity ratio	> 7

Now for another entry.
Inquiry: Fill in: selectivity ratio of C[C@H](CC[C@H](O)C(C)(C)O)[C@H]1CC[C@@]2(C(=O)O)[C@@H]3CCC4=C(CC[C@@H](O)C4(C)C)C[C@H]3CC[C@]12C is ___
Reply text: 5.2

====

Assay: Cytotoxicity against African green monkey Vero cells assessed as growth inhibition after 48 hrs
Assay type: cell-based
Details: chlorocebus sabaeus, read-out: TC50
measuredProperty: CC50 at 48 h (µM)
Answer format: numeric, µM implied, no suffix.

Inquiry: Fill in: CC50 at 48 h of C[C@H](CCC(=O)C(C)(C)O)[C@H]1CC[C@@]2(C(=O)O)[C@@H]3CCC4=C(CC[C@@H](O[C@@H]5O[C@H](CO)[C@@H](O)[C@H](O)[C@H]5O)C4(C)C)C[C@H]3CC[C@]12C is ___
Reply text: 23.1

====

Each entry below carries its recorded CC50 at 48 h.
Assay: Cytotoxicity against African green monkey Vero cells assessed as growth inhibition after 48 hrs
Assay type: cell-based
Details: chlorocebus sabaeus, read-out: TC50
Express it in µM; write the number only.

chemSmiles	CC50 at 48 h, µM
C[C@H](CCC(=O)C(C)(C)O)[C@H]1CC[C@@]2(C(=O)O)[C@@H]3CCC4=C(CC[C@@H](O)C4(C)C)C[C@H]3CC[C@]12C	16

Next item in the queue.
Inquiry: Find the recorded CC50 at 48 h belonging to CC(=O)OC[C@H]1O[C@@H](O[C@@H]2CC[C@]3(C)C4=C(CC[C@H]3C2(C)C)[C@]2(C(=O)O)CC[C@H]([C@H](C)CC[C@H](O)C(C)(C)O)[C@@]2(C)CC4)[C@H](O)[C@@H](O)[C@@H]1O and report it.
Reply text: 19.3

====

Assay: Selectivity index, ratio of TC50 for African green monkey Vero cells to IC50 for Herpes simplex virus-1 F VR 733 infected in African green monkey Vero cells
Format: toxicity
Details: read-out: Selectivity Index
selectivity ratio: recorded values
Answer using only a numeral; do not append any unit.

Inquiry: Reported selectivity ratio for C[C@H](CCC(=O)C(C)(C)O)[C@H]1CC[C@@]2(C(=O)O)[C@@H]3CCC4=C(CC[C@@H](O)C4(C)C)C[C@H]3CC[C@]12C : what is it?
Reply text: 4.3

Inquiry: Same question, C[C@H](CC[C@H](O)C(C)(C)O)[C@H]1CC[C@@]2(C(=O)O)C3=C(CC[C@]12C)[C@@]1(C)CC[C@@H](O)C(C)(C)[C@@H]1CC3 this time
Reply text: 7.6

Inquiry: # iterate: CC(=O)OC[C@H]1O[C@@H](O[C@@H]2CC[C@]3(C)C4=C(CC[C@H]3C2(C)C)[C@]2(C(=O)O)CC[C@H]([C@H](C)CC[C@H](O)C(C)(C)O)[C@@]2(C)CC4)[C@H](O)[C@@H](O)[C@@H]1O
Reply text: 3

Inquiry: Cool, now C[C@H](CCC(=O)C(C)(C)O)[C@H]1CC[C@@]2(C(=O)O)[C@@H]3CCC4=C(CC[C@@H](O[C@@H]5O[C@H](CO)[C@@H](O)[C@H](O)[C@H]5O)C4(C)C)C[C@H]3CC[C@]12C
Reply text: 2.1

====

System: Coxsackievirus B3
Assay: Antiviral activity against Coxsackievirus B3 infected in African green monkey Vero cells assessed as inhibition of virus-induced cytopathic effect
Type: functional
Details: Enterovirus B
pIC50: −log10 of the molar value.
measuredProperty: pIC50

Example cases with answers are listed next.
chemSmiles	pIC50
C[C@H](CC[C@H](O)C(C)(C)O)[C@H]1CC[C@@]2(C(=O)O)C3=C(CC[C@]12C)[C@@]1(C)CC[C@@H](O)C(C)(C)[C@@H]1CC3	5.32
C[C@H](CC[C@H](O)C(C)(C)O)[C@H]1CC[C@@]2(C(=O)O)[C@@H]3CCC4=C(CC[C@@H](O)C4(C)C)C[C@H]3CC[C@]12C	5.32

Inquiry: Which value of pIC50 has been reported for CC(=O)OC[C@H]1O[C@@H](O[C@@H]2CCC3=C(CC[C@@H]4[C@H](CC[C@]5(C)[C@@H]([C@H](C)CC[C@H](O)C(C)(C)O)CC[C@@]45C(=O)O)C3)C2(C)C)[C@H](O)[C@@H](O)[C@@H]1O in the records?
Reply text: ≤ 4.48

Inquiry: Next molecule: Cc1cc(CCCOc2c(C)cc(-c3noc(C(F)(F)F)n3)cc2C)on1
Reply text: 9.00

Inquiry: Same question, NC(=O)c1ncn([C@@H]2O[C@H](CO)[C@@H](O)[C@H]2O)n1 this time
Reply text: 3.53

Inquiry: Now the molecule C[C@H]1[C@H](C)CC[C@@]23CC[C@]4(C)[C@](OC2=O)([C@H](O)C[C@@H]2[C@@]5(C)C[C@@H](O)[C@@H](O)C(CO)(CO)[C@@H]5CC[C@]24C)[C@H]13
Reply text: ≤ 4.48

Inquiry: Param item: CC(=O)OC[C@H]1O[C@@H](O[C@@H]2CC[C@]3(C)C4=C(CC[C@H]3C2(C)C)[C@]2(C(=O)O)CC[C@H]([C@H](C)CC[C@H](O[C@@H]3OC[C@H](O)[C@H](O)[C@H]3O)C(C)(C)O)[C@@]2(C)CC4)[C@H](O)[C@@H](O)[C@@H]1O
Reply text: ≤ 4.48

====

Experiment: Cytotoxicity against African green monkey Vero cells assessed as growth inhibition after 48 hrs
Type: cell-based
Conditions: chlorocebus sabaeus, read-out: TC50
measuredProperty: CC50 at 48 h

Before answering, review these 2 worked examples.
chemSmiles	CC50 at 48 h
C[C@H](CC[C@H](O)C(C)(C)O)[C@H]1CC[C@@]2(C(=O)O)C3=C(CC[C@]12C)[C@@]1(C)CC[C@@H](O)C(C)(C)[C@@H]1CC3	16 to 19.3 µM
C[C@H](CC[C@H](O)C(C)(C)O)[C@H]1CC[C@@]2(C(=O)O)[C@@H]3CCC4=C(CC[C@@H](O)C4(C)C)C[C@H]3CC[C@]12C	48.1 to 57.7 µM

Inquiry: Given the molecule CC(=O)OC[C@H]1O[C@@H](O[C@@H]2CC=C3C[C@H]4CC[C@]5(C)[C@@H]([C@H](C)CC[C@H](O[C@@H]6OC[C@H](O)[C@H](O)[C@H]6O)C(C)(C)O)CC[C@@]5(C(=O)O)[C@@H]4CC[C@H]3C2(C)C)[C@H](O)[C@@H](O)[C@@H]1O , what is its reported CC50 at 48 h?
Reply text: > 100 µM
